tested on: Pyricularia oryzae; test: Antifungal activity against Pyricularia oryzae at 800 ug/ml incubated for 48 hrs by microdilution method; format: functional, organism-based
Calls of active or inactive are those of the source. The rule behind the calls is not given here.
readout-label: Activity

>  <item-smiles>
C/C1=C/C=C\C=C\[C@H](C)[C@@H](O)CC(=O)/C(C)=C/C[C@H](O)/C=C/[C@H](C)[C@H](O)[C@@H](C)/C=C(\C)C(=O)c2c(O)c(C)cc3c2C(=O)C=C(NC1=O)C3=O

>  <reported>
inactive

$$$$
>  <item-smiles>
C/C1=C/C=C\C=C\[C@H](C)[C@@H](O)CC(=O)/C(C)=C/C[C@H](O)/C=C/[C@H](C)[C@H](O)[C@@H](C)/C=C(\C)C(=O)c2c(O)c(C)cc3c2C(=O)C(O)=C(NC1=O)C3=O

>  <reported>
inactive

$$$$
>  <item-smiles>
C/C1=C/C=C\C=C\[C@H](C)[C@@H](O)CC(=O)/C(C)=C/C[C@H](O)/C=C/[C@H](C)[C@H](O)[C@@H](C)/C=C(\C)C(=O)c2c(O)c(C)cc3c2C(=O)C(SCC(=O)O)=C(NC1=O)C3=O

>  <reported>
inactive

$$$$
>  <item-smiles>
C/C1=C/C=C\C=C\[C@H](C)[C@@H](O)CC(=O)/C(C)=C/C[C@H](O)/C=C/[C@H](C)[C@H](O)[C@@H](C)/C=C(\C)C(=O)c2c(O)c(C)cc3c2C(=O)C(NCCSC2=C4NC(=O)\C(C)=C/C=C\C=C\[C@H](C)[C@@H](O)CC(=O)/C(C)=C/C[C@H](O)/C=C/[C@H](C)[C@H](O)[C@@H](C)/C=C(\C)C(=O)c5c(O)c(C)cc(c5C2=O)C4=O)=C(NC1=O)C3=O

>  <reported>
inactive

$$$$
